Source listed as patent US20260043020A1.

target: trypsin; test: TRF ELISA, Fab on biotinylated trypsin
Each record is given Y if its reported TRF signal for 2.4 ug/mL Fab is strictly below 200000. Records at or above 200000 are given N.

-- ask Does KB_C08 Fab (Fab, V domains shown) VH: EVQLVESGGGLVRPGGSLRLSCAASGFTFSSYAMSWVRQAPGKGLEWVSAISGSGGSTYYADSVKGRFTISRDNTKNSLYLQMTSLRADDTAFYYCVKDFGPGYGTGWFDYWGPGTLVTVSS VL: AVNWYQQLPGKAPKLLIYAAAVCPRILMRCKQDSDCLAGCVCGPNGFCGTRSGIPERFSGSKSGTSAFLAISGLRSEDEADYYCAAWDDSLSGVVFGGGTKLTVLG have TRF signal for 2.4 ug/mL Fab strictly under 200000?
-- reply Y

-- ask Does KB_A09 Fab (Fab, V domains shown) VH: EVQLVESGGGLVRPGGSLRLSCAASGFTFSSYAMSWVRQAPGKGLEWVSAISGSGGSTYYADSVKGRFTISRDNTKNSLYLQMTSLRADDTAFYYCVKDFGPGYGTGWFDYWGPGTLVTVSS VL: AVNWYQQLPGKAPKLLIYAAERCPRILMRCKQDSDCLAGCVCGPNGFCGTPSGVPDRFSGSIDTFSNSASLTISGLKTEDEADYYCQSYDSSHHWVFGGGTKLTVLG have TRF signal for 2.4 ug/mL Fab strictly under 200000?
-- reply Y

-- ask Does KB_C07 Fab (Fab, V domains shown) VH: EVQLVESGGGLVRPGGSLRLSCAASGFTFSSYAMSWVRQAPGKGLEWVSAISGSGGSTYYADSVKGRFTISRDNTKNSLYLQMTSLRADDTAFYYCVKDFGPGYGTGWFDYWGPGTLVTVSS VL: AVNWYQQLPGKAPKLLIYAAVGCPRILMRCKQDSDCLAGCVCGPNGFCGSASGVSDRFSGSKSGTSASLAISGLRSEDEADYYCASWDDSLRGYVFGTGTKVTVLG have TRF signal for 2.4 ug/mL Fab strictly under 200000?
-- reply N

-- ask Does KB_A06 Fab (Fab, V domains shown) VH: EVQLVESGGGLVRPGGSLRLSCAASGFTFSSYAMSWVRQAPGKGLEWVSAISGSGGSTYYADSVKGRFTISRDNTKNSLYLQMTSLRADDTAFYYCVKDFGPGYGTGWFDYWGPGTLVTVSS VL: AVNWYQQLPGKAPKLLIYAAVRCPRILMRCKQDSDCLAGCVCGPNGFCGTPSGIPERFSGSIDRSTNSASLTISGLKTEDEADYYCQSYDSSNLNWVFGGGTKLTVLG have TRF signal for 2.4 ug/mL Fab strictly under 200000?
-- reply N
